Listing of recorded self-cleavage by entry.
B1: HDV Ribozyme (parent)
chain: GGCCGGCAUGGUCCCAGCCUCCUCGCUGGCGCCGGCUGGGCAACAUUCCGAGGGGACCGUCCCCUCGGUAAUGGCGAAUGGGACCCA

Variants of: B1
RUN_DESCRIPTION: self-cleavage, relative activity (ratio to wild type); higher = more cleavage; co-transcriptional
PARAMETER: self-cleavage

> print(dat)
                            primary.sequence      parameter  recorded.result
 1  GGCCGGCAUGGUCCCAGCCUCCGCGCUGGCGCCGGCUGGACAACAUUCCGAGGGGACCGUCCCCUCGGUAAUGGCGAAUGGGACCCA [U23G G40A]  self-cleavage             0.76
 2  GGCCGGCAUGGUCCCAGCCUCCUCACUGGCGCCGGCUGGGCAACAUUCCGAGGGGACCGUCCCCGCGGUAAUGGCGAAUGGGACCCA [G25A U65G]  self-cleavage            0.269
 3  GGCCCGCAUGGUCCCAGCCUCCUCGCUGGCGCCGGCUGGGCAACAUUCCGAGGGGACCGUCCCCUCGGUAAUGGCGAAAGGGACCCA [G5C U79A]  self-cleavage            0.185
 4  GGCCGGCAUGGUCCCAGCCUCCUCGCUGGCGCCGGCUGGGGAACAUUCCGAGGGGACCGUCCCCUCGGUAAUGACGAAUGGGACCCA [C41G G74A]  self-cleavage            0.486
 5  GGCCGGCAUGGUCCGAGCCUCCUCGCUGGCGCCGGCUGGGCAACAUUCCGAGGGGACCGUUCCCUCGGUAAUGGCGAAUGGGACCCA [C15G C61U]  self-cleavage            0.434
 6  GGCCGGCAUGGUCCCAGCCUCCUCGCUGGCCCCGGCUGGGCAACAUUCCGAGGGGACCGUCCCCUCGGUCAUGGCGAAUGGGACCCA [G31C A70C]  self-cleavage            0.266
 7  GGCCGGCAUGGUUCCAGCCUCCUCGCUGGCGCCGGCUGGGCAACAUCCCGAGGGGACCGUCCCCUCGGUAAUGGCGAAUGGGACCCA [C13U U47C]  self-cleavage            0.489
 8  GGCCGGCAUGGUCCCAGCCUCCUCGCUGGCGCCGUCUGGGCAACAUUCCGAGGGGACCGUCCCCUCGGUAAUGGCGAAGGGGACCCA [G35U U79G]  self-cleavage           0.0426
 9  GGCCGGCAUGGUCCCAGCCUCCUCGCUGGCGCCGGCUGGGCAACAUUCCGAGGGGACCGUCCCCUCGGUAAAGGCGAAUGGGACCCG [U72A A87G]  self-cleavage            0.452
10  GGCCGGCAUGGUCCCAGCCUCCUCGCUGGCGCCGGCUGGGCAACAUUCCGAGGGGACCGUCCCCUCGGUAAUGGCCAAUGGUACCCA [G76C G82U]  self-cleavage            0.326
11  GGCCGGCAUGGUCCCAGCCUCCUCGCUGGCGCCGGCUGGGCAACAUUCCGAGGUGACUGUCCCCUCGGUAAUGGCGAAUGGGACCCA [G54U C58U]  self-cleavage             0.94
12  GGCCGGCAUGGUCCCAGCCUCCUCGCUGGCGCCGGCUGGGCAACAUUCCGAGAGGACCGUCCCCUCGGUAAGGGCGAAUGGGACCCA [G53A U72G]  self-cleavage            0.429
13  GGCCGGCAUGGUCCCAGCCUCCUCGCUGGCGCCGGUUGGGCAACAUUUCGAGGGGACCGUCCCCUCGGUAAUGGCGAAUGGGACCCA [C36U C48U]  self-cleavage            0.746
14  GGUCGGCAUCGUCCCAGCCUCCUCGCUGGCGCCGGCUGGGCAACAUUCCGAGGGGACCGUCCCCUCGGUAAUGGCGAAUGGGACCCA [C3U G10C]  self-cleavage            0.762
15  GGCCGGCUUGGUCCCAGCCUCCUCGCUGGCGCCGGCUGGGCAACAUUCCGAGUGGACCGUCCCCUCGGUAAUGGCGAAUGGGACCCA [A8U G53U]  self-cleavage            0.867
16  GGCCGGCAUGGUCCCAGCCGCCUGGCUGGCGCCGGCUGGGCAACAUUCCGAGGGGACCGUCCCCUCGGUAAUGGCGAAUGGGACCCA [U20G C24G]  self-cleavage            0.151
17  GGCCGGCAUUGUCCCAGCCUCCUCGCUGGCGCCGGCUGGGCAACAUUCCGAGGGGACCGUCCCCUCAGUAAUGGCGAAUGGGACCCA [G10U G67A]  self-cleavage            0.611
18  GGCCGGCAUGGUCCCAGCGUCCUCACUGGCGCCGGCUGGGCAACAUUCCGAGGGGACCGUCCCCUCGGUAAUGGCGAAUGGGACCCA [C19G G25A]  self-cleavage            0.113
19  GGCCGGCAUGGUCCCAGCCUCCUCGCUGGAGCCGGCUGGGCAACAUUCCGAGGGGACCGUCCCCUCGGUAAUGGCGAAUGGGACCCA [C30A]  self-cleavage            0.547
20  GGGCGGCAUGGUCCCAGCCUCCUCGCUGGCGCCGGCUGGGCAACAUUCCGAGGGGACGGUCCCCUCGGUAAUGGCGAAUGGGACCCA [C3G C58G]  self-cleavage            0.796
21  GGCCGGCAUGGUCCCAGCCGCCUCGCUGGCGCCGGCUGGGCAACAUUCCGAGGGGACCAUCCCCUCGGUAAUGGCGAAUGGGACCCA [U20G G59A]  self-cleavage            0.268
22  GGCCGGCAUGGUCCCAGCCUCCUCGCUGGCGCCGGCUGGGCAACAUUCCGAGGGGACCGUCCCCUCGGUAAAGGCGAAUGGGAACCA [U72A C84A]  self-cleavage            0.639
23  GGCCGGGAUGGUCCCAGCCUCCUCGCUGGCGCCGGCUGGGCAACAUUCUGAGGGGACCGUCCCCUCGGUAAUGGCGAAUGGGACCCA [C7G C49U]  self-cleavage            0.237
24  GGCCGGCAUGUUCCCAGCCUCCUCGCCGGCGCCGGCUGGGCAACAUUCCGAGGGGACCGUCCCCUCGGUAAUGGCGAAUGGGACCCA [G11U U27C]  self-cleavage            0.388
25  GGCCGGCAUGGUCCCACCCUCCUCGCUGGCGCCGGCUGGGCAACAUUCCCAGGGGACCGUCCCCUCGGUAAUGGCGAAUGGGACCCA [G17C G50C]  self-cleavage            0.324
26  GGCCGGAAUGGUCCCAGCCUCCUCGCUGGCGCCGGCUGGGCAACAUUCCGAGGUGACCGUCCCCUCGGUAAUGGCGAAUGGGACCCA [C7A G54U]  self-cleavage            0.609
27  GCCCGGCAUGGUCCCAGCCUCCUCGCUGGCGCCGGCUGGGCAACAUUCCGAGGGGACAGUCCCCUCGGUAAUGGCGAAUGGGACCCA [G2C C58A]  self-cleavage                0
28  GGCCGGCAUGGUCCUAGCCUCCUCGCUGGCGCCGGCUGGACAACAUUCCGAGGGGACCGUCCCCUCGGUAAUGGCGAAUGGGACCCA [C15U G40A]  self-cleavage            0.972
29  GGCCGGCAUUGUCCCAGCCUCCUCGCUGGCGCCGGCUGGGCAACAUUCCGAGGGGACCGUCCCCUCGGUAAUGGCGAAUCGGACCCA [G10U G80C]  self-cleavage           0.0936
30  GGCCGGCAUGGUCCCAGCCUCCUCGCUGGCGCCGGCUGGGCAACAUUCCGAGGGGACCGUCCCCUCGGUAAUGGGGAAUUGGACCCA [C75G G80U]  self-cleavage            0.104
31  GGCCGGCAUGGUCCCAGCCUCCCCGCUUGCGCCGGCUGGGCAACAUUCCGAGGGGACCGUCCCCUCGGUAAUGGCGAAUGGGACCCA [U23C G28U]  self-cleavage            0.249
32  GGCCGGCAUGGUCCCAGCCUCCUCGCUGGCGCCGGCUGGGCAACAUUCCGAGGGGACCGUCCCCUCGGUCAUGGCGAAUGGGAACCA [A70C C84A]  self-cleavage            0.646
33  GGCCGGCAUGGUCCCGGCCUCCUCGCUGGCGCCGGCUCGGCAACAUUCCGAGGGGACCGUCCCCUCGGUAAUGGCGAAUGGGACCCA [A16G G38C]  self-cleavage            0.142
34  GGCCGGCAUGGUCCCAGCCUCCUCGCUGGCGCCGGCUGGGCAACAGUCCGAGGGGAUCGUCCCCUCGGUAAUGGCGAAUGGGACCCA [U46G C57U]  self-cleavage             0.86
35  GGCCGGCAUCGUCCCAGCCUCCUCGCUGGCGCCGGCUGGGCAACAUUCCGAGGGGACCGUCCCCUCGGUAAUGGCGAAUGGGAUCCA [G10C C84U]  self-cleavage            0.604
36  GGCCGGCAUGGUCCCAGCCUCCUCGCUGGCGCCGGCUGGGCAACAUCCCGAGGGGACCGUCCCCUCGGUAAUGGCGAAUGUGACCCA [U47C G81U]  self-cleavage            0.443
37  GGCCGGCAUGGUCUCAGCCUCAUCGCUGGCGCCGGCUGGGCAACAUUCCGAGGGGACCGUCCCCUCGGUAAUGGCGAAUGGGACCCA [C14U C22A]  self-cleavage            0.339
38  GGCCGGCAUGAUCCCAGCCUCCUCGCUGGCGCCGGCUGGGCAACAUUCCGAGGGGACCGUCCCCUCGGUAAUGGCAAAUGGGACCCA [G11A G76A]  self-cleavage            0.578
39  GGCCGGCAUGGUCCCAGCCUCCUCGCAGGCGCCGGCUGGGCAACAUUCCGAGGGGACUGUCCCCUCGGUAAUGGCGAAUGGGACCCA [U27A C58U]  self-cleavage            0.937
40  GGCCGGCAUGGUCCCAGCCUCCUCGCUGGCGCCGGCUGGGCAACAUUCCGAGCGGACCGUCCCCUCGGUAAGGGCGAAUGGGACCCA [G53C U72G]  self-cleavage            0.697
41  GGCCGGCAUGGUCCCAGCCUCCUCGCUGGCGCCGGCUGGGCAACAUUCCGAGGGGACCGUCCCCUCGGUAAUGGCGAAUGGCACUCA [G82C C85U]  self-cleavage             0.18
42  GGCCGGCAUGGUCCCAGCCUCCUCGCUGGCGCCGGCUGGGGAACAUUCCGAGGGGACCGUCCCCUCGGUAAUGCCGAAUGGGACCCA [C41G G74C]  self-cleavage            0.119
43  GGCCGGCAUGGUCCCAGCCUCCUCGCUGGCGCCGGCUGGGCAACAUUCCGAGGGGACCGACCCCUCGGUAAUCGCGAAUGGGACCCA [U60A G73C]  self-cleavage            0.532
44  GGCCGGCAUGGUCCCAGCCUCCUCGCUGGCGCCGGCUGGGCAACGUUCCGAGGGGACCGUCCCCUCGGUAAUGGCAAAUGGGACCCA [A45G G76A]  self-cleavage            0.959
45  GGCCGGCAUGGUCCCAGCCUCCUCGCUGGCGCCGGCAGGGCAACAUUCCGAGGGGACCGUCCCCUCGGUAAUUGCGAAUGGGACCCA [U37A G73U]  self-cleavage            0.225
46  GGCCGGCAUGGUCCCAGCCUCCUCGCUGGCGCCGGCUCGGCAACAUUCUGAGGGGACCGUCCCCUCGGUAAUGGCGAAUGGGACCCA [G38C C49U]  self-cleavage            0.277
